Entry source: ChEMBL document CHEMBL1131586

target: Sodium-dependent dopamine transporter (Rattus norvegicus) (UniProt P23977); test: Inhibition of dopamine uptake from dopamine uptake site
Sequence (P23977 whole entry, looked up): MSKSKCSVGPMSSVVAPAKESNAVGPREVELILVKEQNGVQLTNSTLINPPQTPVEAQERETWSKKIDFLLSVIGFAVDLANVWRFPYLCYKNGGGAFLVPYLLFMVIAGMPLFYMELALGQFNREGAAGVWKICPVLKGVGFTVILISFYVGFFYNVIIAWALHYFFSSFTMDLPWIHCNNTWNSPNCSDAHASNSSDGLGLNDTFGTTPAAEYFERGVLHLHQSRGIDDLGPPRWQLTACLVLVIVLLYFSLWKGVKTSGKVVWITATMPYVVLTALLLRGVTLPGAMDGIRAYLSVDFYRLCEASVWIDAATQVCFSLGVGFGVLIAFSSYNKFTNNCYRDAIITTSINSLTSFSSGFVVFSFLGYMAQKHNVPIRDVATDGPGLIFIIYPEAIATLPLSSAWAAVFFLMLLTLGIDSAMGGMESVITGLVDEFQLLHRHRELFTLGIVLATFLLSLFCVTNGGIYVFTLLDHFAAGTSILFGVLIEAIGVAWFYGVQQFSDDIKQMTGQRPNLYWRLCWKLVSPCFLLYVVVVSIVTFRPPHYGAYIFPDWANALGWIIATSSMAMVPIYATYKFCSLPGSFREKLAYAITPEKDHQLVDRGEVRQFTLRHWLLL
pIC50: −log10 of the molar value.

compound | pIC50
CN1CCN(C2Cn3cccc3Sc3ccc(Cl)cc32)CC1 (racemic) | 5.19

====

target: D(3) dopamine receptor (Rattus norvegicus)
Sequence (P19020 whole entry): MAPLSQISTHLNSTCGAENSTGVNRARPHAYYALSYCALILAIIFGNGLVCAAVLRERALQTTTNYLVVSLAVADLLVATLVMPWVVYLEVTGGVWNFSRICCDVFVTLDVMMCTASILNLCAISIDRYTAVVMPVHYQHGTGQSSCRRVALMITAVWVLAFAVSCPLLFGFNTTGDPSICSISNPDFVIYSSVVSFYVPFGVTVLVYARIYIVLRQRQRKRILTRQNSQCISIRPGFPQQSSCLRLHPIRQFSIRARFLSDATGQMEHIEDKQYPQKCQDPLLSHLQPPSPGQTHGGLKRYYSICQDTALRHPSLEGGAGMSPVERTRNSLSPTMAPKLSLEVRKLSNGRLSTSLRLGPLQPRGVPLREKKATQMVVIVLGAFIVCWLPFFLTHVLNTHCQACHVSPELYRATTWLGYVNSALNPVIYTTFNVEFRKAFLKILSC
pKi: −log10 of the molar value.

compound | pKi
CN1CCN(C2Cn3cccc3Sc3ccc(Cl)cc32)CC1 (racemic) | 8.39
